Target: human GPR84 receptor (Homo sapiens)
Construct: host or cells: HEK293, transient transfection
Experiment: Gαi biosensor BRET assay in HEK293 cells (antagonism of ZQ-16)
Format: cell-based
Conditions: HEK293, single concentration 25 μM (designated I)
measuredQuantity: inhibition at 25 µM

Exercise: human GPR84 receptor (Homo sapiens) / inhibition at 25 µM / Cc1nc(-c2ccc(C#CC3CC3)cc2)cn1CC1CCCCO1 (centres unmarked) : value?
Solution: ≤ 25%

Exercise: human GPR84 receptor (Homo sapiens) / inhibition at 25 µM / C(#CC1CC1)c1ccc(-c2cn(C[C@H]3COc4ccccc4O3)nn2)cc1 : value?
Solution: ≤ 25%

Exercise: human GPR84 receptor (Homo sapiens) / inhibition at 25 µM / Clc1cc(C#CC2CC2)ccc1-c1cn(CC2CCCCO2)nn1 (centres unmarked) : value?
Solution: > 75%

Exercise: human GPR84 receptor (Homo sapiens) / inhibition at 25 µM / C(#CC1CC1)c1ccc(-c2nnnn2CC2CCCCO2)cc1 (centres unmarked) : value?
Solution: 25 to 50%

Exercise: human GPR84 receptor (Homo sapiens) / inhibition at 25 µM / C(#CC1CC1)c1ccc(-c2nnn(CC3CCCCO3)n2)cc1 (centres unmarked) : value?
Solution: ≤ 25%

Exercise: human GPR84 receptor (Homo sapiens) / inhibition at 25 µM / Cc1cn(CC2CCCCO2)nc1-c1ccc(C#CC2CC2)cc1 (centres unmarked) : value?
Solution: ≤ 25%

Exercise: human GPR84 receptor (Homo sapiens) / inhibition at 25 µM / Cc1c(-c2ccc(C#CC3CC3)cc2)ncn1CC1CCCCO1 (centres unmarked) : value?
Solution: > 75%

Exercise: human GPR84 receptor (Homo sapiens) / inhibition at 25 µM / C(#CC1CC1)c1ccc(-c2cn(CC3CCc4ccccc4O3)nn2)cc1 (centres unmarked) : value?
Solution: ≤ 25%

* * *

Can you tell me IC50 for the items I'm about to list?
Biological target: human GPR84 receptor (Homo sapiens, UniProt Q9NQS5)
Sequence (Q9NQS5 whole entry): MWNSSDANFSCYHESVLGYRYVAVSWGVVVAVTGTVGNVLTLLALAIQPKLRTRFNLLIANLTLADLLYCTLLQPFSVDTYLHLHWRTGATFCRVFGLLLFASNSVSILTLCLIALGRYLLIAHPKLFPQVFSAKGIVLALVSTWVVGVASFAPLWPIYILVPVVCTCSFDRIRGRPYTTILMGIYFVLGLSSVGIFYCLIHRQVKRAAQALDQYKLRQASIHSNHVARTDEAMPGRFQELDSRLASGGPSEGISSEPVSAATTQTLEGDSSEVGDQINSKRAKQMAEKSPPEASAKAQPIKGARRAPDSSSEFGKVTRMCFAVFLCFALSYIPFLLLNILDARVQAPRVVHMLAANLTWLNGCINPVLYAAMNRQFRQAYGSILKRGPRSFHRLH
Assay: Gαi biosensor BRET assay in HEK293 cells (antagonism of ZQ-16)
Conditions: HEK293 cells, antagonism of 200 nmol/L ZQ-16

Exercise: Can you share its IC50? I mean this molecule: CCc1cc(C#CCN2CC(C)(CO)C2)cnc1-c1cn(CC2OCC(C)(C)CO2)nn1
Solution: 0.3 to 1 µM

Exercise: Can you share its IC50? I mean this molecule: CC1(C)COC(Cn2cc(-c3ccc(C#CCN4CC(C)(C)C4)cc3OC3CC3)nn2)OC1
Solution: ≤ 0.3 µM

Exercise: Can you share its IC50? I mean this molecule: CN(C)c1cc(N2CC(C)(CO)C2)c(F)cc1-c1cn(CC2OCC3(CCC3)O2)nn1 (centres unmarked)
Solution: 0.3 to 1 µM

Exercise: Can you share its IC50? I mean this molecule: Cc1cc(N2CCN(Cc3ccccn3)CC2)ccc1-c1cn(CC2CC(C)(C)O2)nn1 (centres unmarked)
Solution: > 3 µM

Exercise: Can you share its IC50? I mean this molecule: Cc1cc(N2CCC[C@@H](N(C)Cc3ccccc3)C2)ccc1-c1cn(C[C@H]2CCCCO2)nn1 (relative stereo)
Solution: 1 to 3 µM

Exercise: Can you share its IC50? I mean this molecule: Cc1cc(C#CCn2cc(-c3ccccc3)nn2)ccc1-c1cn(CC2CCCCO2)nn1 (centres unmarked)
Solution: 0.3 to 1 µM

Exercise: Can you share its IC50? I mean this molecule: CC(C)Oc1cc(C#CC2CC2)ccc1-c1cn(CC2CCCCO2)nn1 (centres unmarked)
Solution: > 3 µM

Exercise: Can you share its IC50? I mean this molecule: Cc1cc(C#CCNc2ccccc2)ccc1-c1cn(CC2CCCO2)nn1 (centres unmarked)
Solution: > 3 µM

* * *

Molecular target: human GPR84 receptor (Homo sapiens, UniProt Q9NQS5)
Construct: host or cells: HEK293, transient transfection
Test: Gαi biosensor BRET assay in HEK293 cells (antagonism of ZQ-16)
Type: cell-based
Settings: HEK293, single concentration 10 μM (designated F)
measuredQuantity: inhibition at 10 µM

Exercise: Can you share its inhibition at 10 µM? I mean this compound: C(#CC1CC1)c1csc(-c2cn(CC3CCCCO3)nn2)c1 (stereo not shown)
Solution: ≤ 25%

Exercise: Can you share its inhibition at 10 µM? I mean this compound: CC(c1cn(CC2CCCCO2)nn1)c1cccc(C#CC2CC2)n1 (stereo not shown)
Solution: 25 to 50%

Exercise: Can you share its inhibition at 10 µM? I mean this compound: Cc1cc(N2CC3(CCN(Cc4ccccn4)CC3)C2)ccc1-c1cn(CC2CCCCO2)nn1 (stereo not shown)
Solution: 50 to 75%

Exercise: Can you share its inhibition at 10 µM? I mean this compound: Cc1cc(C#CC2CC2)ccc1-c1cn(CC2OCCO2)nn1
Solution: ≤ 25%

Exercise: Can you share its inhibition at 10 µM? I mean this compound: CNC1CN(c2ccc(-c3cn(CC4CCCCO4)nn3)c(C)c2)C1 (stereo not shown)
Solution: ≤ 25%

Exercise: Can you share its inhibition at 10 µM? I mean this compound: CCc1cc(N2CC(C)(C)C2)ccc1-c1cn(CC2OCC(C)(C)CO2)nn1
Solution: > 75%

Exercise: Can you share its inhibition at 10 µM? I mean this compound: Cc1cc(N2CC(C)(C)C2)ccc1-c1cn(CC2OCC(C)(C)CO2)nn1
Solution: > 75%

* * *

Can you tell me IC50 for the items I'm about to list?
System: neutrophils
Assay: Neutrophil migration assay (embelin as chemotactic agent, ATPlite readout)
Assay type: cell-based
Conditions: Neutrophil; human neutrophils, embelin as chemotactic agent; read-out: Human Neutrophil migration inhibition IC50

Exercise: Can you share its IC50? I mean this compound: Cc1cc(C#CC2(O)CCCCC2)ccc1-c1cn(CC2CCCCO2)nn1 (stereo not shown)
Solution: 1 to 3 µM

Exercise: Can you share its IC50? I mean this compound: Cc1cc(C#CC2CC2)cnc1-c1cn(CC2CCCCO2)nn1 (stereo not shown)
Solution: ≤ 0.3 µM

Exercise: Can you share its IC50? I mean this compound: Cc1cc(C#CCNC(=O)OC(C)(C)C)ccc1-c1cn(CC2CCCCO2)nn1 (stereo not shown)
Solution: ≤ 0.3 µM

Exercise: Can you share its IC50? I mean this compound: CC(C)c1cc(C#CC2CC2)ccc1-c1cn(CC2CCCCO2)nn1 (stereo not shown)
Solution: 1 to 3 µM

Exercise: Can you share its IC50? I mean this compound: Cc1cc(C#CC(C)(C)O)ccc1-c1cn(CC2CCCCO2)nn1 (stereo not shown)
Solution: 0.3 to 1 µM

Exercise: Can you share its IC50? I mean this compound: Cc1cc(C#CCN(C)CC2(C(F)(F)F)CC2)ccc1-c1cn(CC2CCCCO2)nn1 (stereo not shown)
Solution: 1 to 3 µM

Exercise: Can you share its IC50? I mean this compound: CCc1cc(N2CCN(Cc3ccccn3)CC2)cnc1-c1cn(C[C@H]2CCCCO2)nn1
Solution: ≤ 0.3 µM

Exercise: Can you share its IC50? I mean this compound: CN(C)c1cc(N2CC(C)(CO)C2)ccc1-c1cn(CC2CC(C)(C)CO2)nn1 (stereo not shown)
Solution: ≤ 0.3 µM

Exercise: Can you share its IC50? I mean this compound: Cc1cc(C#CC2CC2)cnc1-c1cn(CC2CCCCO2)cn1 (stereo not shown)
Solution: ≤ 0.3 µM

Exercise: Can you share its IC50? I mean this compound: Cc1cc(C#CCn2cc(-c3ccc([N+](=O)[O-])cc3)nn2)ccc1-c1cn(CC2CCCCO2)nn1 (stereo not shown)
Solution: ≤ 0.3 µM

* * *

Target: human GPR84 receptor (Homo sapiens)
Construct: host or cells: HEK293, transient transfection
Assay: Gαi biosensor BRET assay in HEK293 cells (antagonism of ZQ-16)
Format: cell-based
Details: HEK293, single concentration 10 μM (designated F)
measuredQuantity: inhibition at 10 µM

Exercise: Can you share its inhibition at 10 µM? I mean this molecule: Cc1c(C#CC2CC2)cccc1C(C)c1cn(C[C@H]2CCCCO2)nn1 (stereo partly drawn)
Solution: > 75%

Exercise: Can you share its inhibition at 10 µM? I mean this molecule: Cc1cc(C#CC2CCC2)ccc1-c1cn(CC2CCCCO2)nn1 (stereo not drawn)
Solution: > 75%

Exercise: Can you share its inhibition at 10 µM? I mean this molecule: Cc1cc(N2CC3(CCN(Cc4ccccc4)CC3)C2)ccc1-c1cn(CC2CCCCO2)nn1 (stereo not drawn)
Solution: 50 to 75%

* * *

Can you tell me IC50 for the items I'm about to list?
Target: human GPR84 receptor (Homo sapiens)
Experiment: Gαi biosensor BRET assay in HEK293 cells (antagonism of ZQ-16)
Conditions: HEK293 cells, antagonism of 200 nmol/L ZQ-16

Exercise: Can you share its IC50? I mean this molecule: COC(c1cn(CC2OCC(C)(C)CO2)nn1)c1cc(C#CC2CC2)c(F)cc1C (stereo not shown)
Solution: ≤ 0.3 µM

Exercise: Can you share its IC50? I mean this molecule: Cc1cc(N2CCN(Cc3ccccn3)CC2)ccc1-c1cn(CC2CC(C)(C)CO2)nn1 (stereo not shown)
Solution: ≤ 0.3 µM

Exercise: Can you share its IC50? I mean this molecule: FC(F)(F)c1cc(C#CC2CC2)ccc1-c1cn(CC2CCCCO2)nn1 (stereo not shown)
Solution: > 3 µM

Exercise: Can you share its IC50? I mean this molecule: Cc1cc(N2CC(C)(C)C2)ccc1-c1cn(CC2CCCCO2)nn1 (stereo not shown) [Compound I-75]
Solution: 0.3 to 1 µM

Exercise: Can you share its IC50? I mean this molecule: Cc1cc(N2CCN(Cc3ccccn3)CC2)ccc1-c1cn(C[C@H]2CCCCO2)nn1
Solution: 0.3 to 1 µM

Exercise: Can you share its IC50? I mean this molecule: Cc1cc(N2CCN(Cc3ccccn3)CC2)ccc1-c1cn(CC2OCC(C)(C)CO2)nn1
Solution: ≤ 0.3 µM

Exercise: Can you share its IC50? I mean this molecule: Cc1cc(C#CC2CC2)cnc1-c1cn(CC2CCCCO2)nn1 (stereo not shown) [Compound I-107]
Solution: 1 to 3 µM

Exercise: Can you share its IC50? I mean this molecule: COCC1(C)CN(c2ccc(-c3cn(CC4OCC(C)(C)CO4)nn3)c(N(C)C)c2)C1
Solution: 0.3 to 1 µM

Exercise: Can you share its IC50? I mean this molecule: C[C@@H]1Cc2oc(C(=O)NC[C@@H]3COCCO3)c(C(F)(F)F)c2-c2nn(CC3CCN(C(=O)C4CC4)CC3)cc21
Solution: 0.3 to 1 µM

Exercise: Can you share its IC50? I mean this molecule: Cc1cccc(-c2cn(CC#Cc3cnc(-c4cn(CC5CCCCO5)nn4)c(C)c3)nn2)c1 (stereo not shown)
Solution: 0.3 to 1 µM

Exercise: Can you share its IC50? I mean this molecule: Cc1cc(N2CC(C)(NCc3ccccn3)C2)c(F)cc1-c1cn(CC2CCCCO2)nn1 (stereo not shown)
Solution: 0.3 to 1 µM

Exercise: Can you share its IC50? I mean this molecule: CC1(C)COC(Cn2cc(-c3ncc(C#CCN4CC(C)(C)C4)cc3CC(F)(F)F)nn2)OC1
Solution: ≤ 0.3 µM

Exercise: Can you share its IC50? I mean this molecule: Cc1cc(N2CC(C)(N(C)Cc3ccccn3)C2)ccc1-c1cn(CC2CCCCO2)nn1 (stereo not shown)
Solution: 0.3 to 1 µM

Exercise: Can you share its IC50? I mean this molecule: Cc1cc(N2CCN([C@@H](C)c3ccccn3)CC2)ccc1-c1cn(C[C@H]2CCCCO2)nn1
Solution: 0.3 to 1 µM

Exercise: Can you share its IC50? I mean this molecule: CN(C)c1cc(N2CC(C)(CO)C2)c(F)cc1-c1cn(CC2OCC3(CC3)CO2)nn1
Solution: ≤ 0.3 µM

Exercise: Can you share its IC50? I mean this molecule: Cc1ccc(-c2ccc(-c3cn(CC4CCCCO4)nn3)c(C)c2)cn1 (stereo not shown)
Solution: > 3 µM

Exercise: Can you share its IC50? I mean this molecule: CCc1ccc(C#CC2CC2)cc1-c1cn(CC2CCCCO2)nn1 (stereo not shown)
Solution: > 3 µM

Exercise: Can you share its IC50? I mean this molecule: CC1(C)COC(Cn2cc(-c3ncc(C#CCN4CC(C)(CO)C4)cc3OC3CC3)nn2)OC1
Solution: ≤ 0.3 µM

Exercise: Can you share its IC50? I mean this molecule: CN(C)c1cc(N2CC(C)(CO)C2)ccc1-c1cn(CC2OCC3(CC3)CO2)nn1
Solution: ≤ 0.3 µM

Exercise: Can you share its IC50? I mean this molecule: Cc1cc(N2CCN(Cc3ccccn3)CC2)ccc1-c1cn(CC2OCC(C)(C)O2)nn1 (stereo not shown)
Solution: > 3 µM

Exercise: Can you share its IC50? I mean this molecule: Cc1ccc(C#CC2CC2)cc1-c1cn(CC2CCCCO2)nn1 (stereo not shown)
Solution: 1 to 3 µM

Exercise: Can you share its IC50? I mean this molecule: Cc1cc(N2CCN(Cc3ccccn3)CC2)ccc1-c1cn(CC2OCC3(CC3)CO2)nn1
Solution: 0.3 to 1 µM

Data credit: patent US12617777B2
